The entries below come with measured IC50 values attached.
Target: human orexin-2 receptor (hOX2R) (Homo sapiens)
Sequence (O43614 1-444): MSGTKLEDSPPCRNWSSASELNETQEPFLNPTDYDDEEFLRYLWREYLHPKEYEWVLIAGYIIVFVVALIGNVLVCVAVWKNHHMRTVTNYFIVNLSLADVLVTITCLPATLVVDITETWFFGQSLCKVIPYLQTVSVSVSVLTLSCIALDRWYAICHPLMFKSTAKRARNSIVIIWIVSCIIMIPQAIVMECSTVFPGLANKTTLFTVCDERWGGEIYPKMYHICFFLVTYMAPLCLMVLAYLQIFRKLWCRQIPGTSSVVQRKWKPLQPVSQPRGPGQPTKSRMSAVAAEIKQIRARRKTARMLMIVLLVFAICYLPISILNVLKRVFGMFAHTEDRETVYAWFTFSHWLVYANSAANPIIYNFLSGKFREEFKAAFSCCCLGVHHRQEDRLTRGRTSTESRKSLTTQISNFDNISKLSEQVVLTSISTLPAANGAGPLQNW
Assay: FLIPR Ca2+ Flux Assay, CHO cells expressing hOX2R
Conditions: agonist 70 pM Ala-6,12 orexin-A
Readout Name: IC50 (nM)

>>> df
                                    compound  meas_value
 0  C[C@@H]1CC[C@@H](Oc2ncccc2C(C)(C)O)CN1C(=O)c1cc(Cl)ccc1-n1nccn1 [Example 6]          66
 1  C[C@@H]1CC[C@@H](Oc2ncccc2C(C)(C)O)CN1C(=O)c1ccsc1-n1nccn1 [Example 18]           9
 2  C[C@@H]1CC[C@@H](Oc2ncccc2C(C)(C)O)CN1C(=O)c1ccccc1C1CCC1 [Example 9]          54
 3  CCc1ccnc(O[C@@H]2CC[C@@H](C)N(C(=O)c3ccccc3-n3nccn3)C2)c1CO [Example 40]          17
 4  COc1ccnc(O[C@@H]2CC[C@@H](C)N(C(=O)c3ccccc3-n3nccn3)C2)c1C(C)(C)O [Example 27]          25
 5  COc1ccc(C(=O)N2C[C@H](Oc3ncccc3C(C)(C)O)CC[C@H]2C)c(-c2ccccc2)n1 [Example 10]         157
 6  C[C@@H]1CC[C@@H](Oc2ncccc2[C@@H](O)C(F)(F)F)CN1C(=O)c1ccccc1-n1nccn1 [Example 37]          18
 7  C[C@@H]1CC[C@@H](Oc2nccc(C(F)(F)F)c2CO)CN1C(=O)c1ccccc1-n1nccn1 [Example 44]          18
 8  C[C@@H]1CC[C@@H](Oc2ncccc2CO)CN1C(=O)c1ccccc1-n1ncnn1 [Example 50]         289
 9  Cc1ccc(C(=O)N2C[C@H](Oc3ncccc3C(C)(C)O)CC[C@H]2C)c(C2CC2)c1 [Example 16]         135
10  COc1ccc(C(=O)N2C[C@H](Oc3ncccc3CO)CC[C@H]2C)c(-n2nccn2)n1 [Example 49]         588
11  C[C@@H]1CC[C@@H](Oc2ncccc2C(C)(C)O)CN1C(=O)c1ccsc1-c1ncccn1 [Example 19]          13
12  C#C[C@@H](O)c1cccnc1O[C@@H]1CC[C@@H](C)N(C(=O)c2ccccc2-n2nccn2)C1 [Example 35]          27
13  COc1ccnc(O[C@@H]2CC[C@@H](C)N(C(=O)c3ccccc3-n3nccn3)C2)c1C(C)(C)O (single isomer, unassigned) [Example 28]          80
14  C[C@@H]1CC[C@@H](Oc2ncccc2C(C)(C)O)CN1C(=O)c1ccccc1-n1ncnn1 [Example 48]          21
15  C[C@@H]1CC[C@@H](Oc2ncccc2C(C)(C)O)CN1C(=O)c1cc(F)ccc1-c1ncccn1 [Example 22]          82
16  CC[C@@H](O)c1cccnc1O[C@@H]1CC[C@@H](C)N(C(=O)c2ccccc2-n2nccn2)C1 [Example 33]          33
17  C[C@@H]1CC[C@@H](Oc2ncccc2C(C)(C)O)CN1C(=O)c1cccc(F)c1-c1ncccn1 [Example 20]          98
18  COc1ccnc(O[C@@H]2CC[C@@H](C)N(C(=O)c3ccccc3-n3nccn3)C2)c1CO [Example 46]          34
19  CC(C)c1ccnc(O[C@@H]2CC[C@@H](C)N(C(=O)c3ccccc3-n3nccn3)C2)c1CO [Example 43]          23
20  C#C[C@H](O)c1cccnc1O[C@@H]1CC[C@@H](C)N(C(=O)c2ccccc2-n2nccn2)C1 [Example 34]          26
21  C[C@@H]1CC[C@@H](Oc2ncccc2C(C)(C)O)CN1C(=O)c1sccc1-n1nccn1 [Example 11]          41
22  COc1ccnc(O[C@@H]2CC[C@@H](C)N(C(=O)c3ccccc3-n3nccn3)C2)c1C(C)O (some centres unmarked) [Example 26]        22.5
23  C[C@@H]1CC[C@@H](Oc2nccc(C3CC3)c2CO)CN1C(=O)c1ccccc1-n1nccn1 [Example 42]          17
24  C[C@@H]1CC[C@@H](Oc2ncccc2C(C)(C)O)CN1C(=O)c1ccccc1C1CC1 [Example 13]          34
25  Cc1ccc(-n2nccn2)c(C(=O)N2C[C@H](Oc3ncccc3C(C)(C)O)CC[C@H]2C)c1 [Example 17]          37
26  C[C@@H]1CC[C@@H](Oc2ncccc2C(C)(C)O)CN1C(=O)c1ccc(F)cc1C1CC1 [Example 14]          49
27  C[C@@H]1CC[C@@H](Oc2ncccc2C(C)(C)O)CN1C(=O)c1cc(CF)ccc1-n1nccn1 [Example 2]          11
28  C[C@@H]1CC[C@@H](Oc2ncccc2C(C)(C)O)CN1C(=O)c1cccc(F)c1-n1nccn1 [Example 3]          35
